# assaySystem: T1, human PILRA, c-term His-Avi tag (human, UniProt Q9UKJ1 20-197, limits assumed)
# T1 construct: not shown: C-terminal His-Avi tag
# T1 sequence (Q9UKJ1 20-197 limits assumed): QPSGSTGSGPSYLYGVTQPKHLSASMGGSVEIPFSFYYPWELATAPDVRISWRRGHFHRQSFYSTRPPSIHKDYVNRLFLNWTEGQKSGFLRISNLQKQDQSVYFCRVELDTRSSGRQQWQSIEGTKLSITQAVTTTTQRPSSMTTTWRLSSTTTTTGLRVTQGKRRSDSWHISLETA
# experiment: SPR (Biacore), antibody captured, PILRA as analyte
# Lookup of reported koff keyed by entry
Kindly answer with a numeric value in s⁻¹, unit omitted.

Below: 3 binders and their reported koff.
Lookup: Give the reported koff for this binder. E5 (antibody, V domains shown) VH: QVQLVQSGAEVKKPGSSVKVSCKASGYTFTSYGINWVRQAPGQGLEWMGWINPNSGDTLYAQNFQGRVTITADESTSTAYMELSSLRSEDTAVYYCARGPEPYWYFDLWGRGTLVTVSS VL: EIVMTQSPATLSVSPGERATLSCRASQNIDSRFLAWYQQKPGQAPRLLIYGASTRATGIPARFSGSGSGTEFTLTISSLQSEDFAVYYCQQSFSTPLTFGGGTKVEIK
Found: 0.0061

Lookup: Give the reported koff for this binder. A2 (antibody, V domains shown, phage campaign) VH: EVQLLESGGGLVKPGGSLRLSCAASGFTFSDYYMSWVRQAPGKGLEWVSSISIGGGGTYYADSVKGRFTISRDDSKNTLYLQMNSLRAEDTAVYYCASHGFGARKMDFWGQGTTVTVSS VL: DIQMTQSPSSLSASVGDRVTITCRASQSIRSYVNWYQQKPGKAPKLLIYDASNLETGVPSRFSGSGSGTDFTLTISSLQPEDFATYYCQQSYSPPITFGQGTKVEIK
Found: 0.0063

Lookup: Give the reported koff for this binder. E21 (antibody, V domains shown, phage campaign) VH: QVQLVQSGAEVKKPGSSVKVSCKASGYTFSNYDINWVRQAPGQGLEWMGGIIPIFGTANYALKFQGRVTITADESTSTAYMELSSLRSEDTAVYYCARGGPWLYFDYWGQGTLVTVSS VL: DIQMTQSPSSLSASVGDRVTITCRASQSISTYLNWYQQKPGKAPKLLIYAASTLQSGVPSRFSGSGSGTDFTLTISSLQPEDFATYYCQQSYSSPLTFGQGTKLEIK
Found: 0.0061

Others:
Lookup: Give the reported koff for this binder. A5 (antibody, V domains shown, phage campaign) VH: QVQLVQSGAEVKKPGSSVKVSCKASGYTFTDYYMNWVRQAPGQGLEWMGGIIPIFGTADYAQRFQGRVTITADESTSTAYMELSSLRSEDTAVYYCARDAGYYGMDVWGQGTLVTVSS VL: EIVMTQSPATLSVSPGERATLSCRASQSVSNYLAWYQQKPGQAPRLLIYGASTRATGIPARFSGSGSGTEFTLTISSLQSEDFAVYYCQQFDDLPLTFGPGTKVEIK
Found: 0.0045

Lookup: Give the reported koff for this binder. A3 (antibody, V domains shown, phage campaign) VH: EVQLLESGGGLVQPGGSLRLSCAASGFTFSRYEMNWVRQAPGKGLEWVAGISYDGSYEYYADSVKGRFTISRDNSKNTLYLQMNSLRAEDTAVYYCAKGSYGYDAFDIWGQGTMVTVSS VL: DIQMTQSPSSLSASVGDRVTITCRASQSISSWLAWYQQKPGKAPKLLIYATSTLQSGVPSRFSGSGSGTDFTLTISSLQPEDFATYYCQQSYSPPYTFGQGTKVEIK
Found: 0.0067
